Measured LD50 by item
system: ICR mice; test: Acute toxicity test (LD50), Litchfield-Wilcoxon method; assay type: in vivo, mouse; set-up: unit not given here; conditions: p.o.; male ICR mice, 14 days

# chemical.string, tested.system, LD50
records = [
    ("CCc1cc(NC(=O)N2CCN(c3cc(OC)cc(OC)c3)CC2)c(OC)nc1C", "ICR mice", "> 622"),
    ("COc1cc(OC)cc(N2CCN(C(=O)Nc3cc(C)c(C)nc3OC)CC2)c1", "ICR mice", 571.8),
    ("CCc1cc(NC(=S)N2CCN(c3cccc(Cl)c3)CC2)c(OC)nc1C", "ICR mice", "> 2,000"),
    ("CCc1cc(NC(=O)N2CCN(c3cccc(C)c3C)CC2)c(OC)nc1C", "ICR mice", "> 2,000"),
    ("COc1nc(C)c(C)cc1NC(=O)N1CCN(c2cccc(Cl)c2)CC1", "ICR mice", "> 2,073"),
]

Data point: COc1ccccc1N1CCN(C(=O)Nc2cc(C)c(C)nc2OC)CC1 ; LD50 = > 3,110
